protocol: Drug metabolism in po dosed mouse plasma assessed as H2S release by measuring hydrogen sulfide level administered for 7 days and measured following 12 hrs fasting on day 7 (reference value: 52.9 +/- 5.4 umol/L)
Format: ADME, organism-based
condition set: in vivo

{"compound": "COC(=O)CCCCOc1ccc(-c2cc(=S)ss2)cc1", "Drug metabolism": "86.5 µmol/L"}
{"compound": "COC(=O)CCCCCOc1ccc(-c2cc(=S)ss2)cc1", "Drug metabolism": "93.7 µmol/L"}
{"compound": "COC(=O)C(C)(C)Oc1ccc(-c2cc(=S)ss2)cc1", "Drug metabolism": "113.4 µmol/L"}
{"compound": "CCC(Oc1ccc(-c2cc(=S)ss2)cc1)C(=O)OC (configuration not stated)", "Drug metabolism": "128.8 µmol/L"}
{"compound": "COC(=O)C(C)Oc1ccc(-c2cc(=S)ss2)cc1 (configuration not stated)", "Drug metabolism": "119.3 µmol/L"}
{"compound": "COc1ccc(-c2cc(=S)ss2)cc1", "Drug metabolism": "184.6 µmol/L"}
{"compound": "COC(=O)CCCOc1ccc(-c2cc(=S)ss2)cc1", "Drug metabolism": "95.5 µmol/L"}

* * *

Drug metabolism by entry:
protocol: Drug metabolism in po dosed mouse liver assessed as H2S release by measuring hydrogen sulfide level administered for 7 days and measured following 12 hrs fasting on day 7 (reference value: 93.8 +/- 6.1 nmol/g)
Assay type: ADME, organism-based
condition set: in vivo

{"compound": "CCC(Oc1ccc(-c2cc(=S)ss2)cc1)C(=O)OC (configuration not stated)", "Drug metabolism": "159.5 nmol/g"}
{"compound": "COC(=O)CCCCCOc1ccc(-c2cc(=S)ss2)cc1", "Drug metabolism": "132.1 nmol/g"}
{"compound": "COC(=O)C(C)(C)Oc1ccc(-c2cc(=S)ss2)cc1", "Drug metabolism": "165.6 nmol/g"}
{"compound": "COC(=O)C(C)Oc1ccc(-c2cc(=S)ss2)cc1 (configuration not stated)", "Drug metabolism": "164.8 nmol/g"}
{"compound": "COC(=O)CCCOc1ccc(-c2cc(=S)ss2)cc1", "Drug metabolism": "130.5 nmol/g"}
{"compound": "COc1ccc(-c2cc(=S)ss2)cc1 [ANETHOLTRITHION]", "Drug metabolism": "181.3 nmol/g"}
{"compound": "COC(=O)CCCCOc1ccc(-c2cc(=S)ss2)cc1", "Drug metabolism": "155.5 nmol/g"}

* * *

Organism: Mus musculus
condition set: at 13 mg/kg
Description: Hypolipidemic activity in Triton WR1339-induced hyperlipidemia mouse model assessed as decrease in serum TC level at 13 mg/kg, ig administered for one week and administered with Triton WR 1339 on day 6 and measured after 24 hrs
The source made the active and inactive calls. The rule behind the calls is not given here.
Classes used: Y (active), N (inactive)

{"compound": "COC(=O)C(C)(C)Oc1ccc(-c2cc(=S)ss2)cc1", "class label": "Y"}
{"compound": "COC(=O)CCCOc1ccc(-c2cc(=S)ss2)cc1", "class label": "Y"}
{"compound": "COC(=O)CCCCOc1ccc(-c2cc(=S)ss2)cc1", "class label": "Y"}
{"compound": "COc1ccc(-c2cc(=S)ss2)cc1 [ANETHOLTRITHION]", "class label": "N"}

* * *

Organism: Mus musculus
condition set: at 13 mg/kg
Description: Hypolipidemic activity in Triton WR1339-induced hyperlipidemia mouse model assessed as decrease in serum TG level at 13 mg/kg, ig administered for one week and administered with Triton WR 1339 on day 6 and measured after 24 hrs
Activity calls are given as the source filed them. No cut-off for these calls is given here.
Classes used: 1 = active, 0 = inactive

{"molecule": "COC(=O)C(C)(C)Oc1ccc(-c2cc(=S)ss2)cc1", "class label": 1}
{"molecule": "COC(=O)CCCCCOc1ccc(-c2cc(=S)ss2)cc1", "class label": 1}
{"molecule": "COC(=O)CCCCOc1ccc(-c2cc(=S)ss2)cc1", "class label": 1}
{"molecule": "COC(=O)C(C)Oc1ccc(-c2cc(=S)ss2)cc1 (configuration not stated)", "class label": 1}
{"molecule": "COc1ccc(-c2cc(=S)ss2)cc1", "class label": 0}
{"molecule": "COC(=O)CCCOc1ccc(-c2cc(=S)ss2)cc1", "class label": 1}
{"molecule": "CCC(Oc1ccc(-c2cc(=S)ss2)cc1)C(=O)OC (configuration not stated)", "class label": 1}

The measurements presented in this section are drawn from ChEMBL document CHEMBL4406866.
